- Tested on: Cerebrospinal fluid
- test protocol: Drug level in Sprague-Dawley rat cerebrospinal fluid at 10 mg/kg, po; also: time not given here
- Type: ADME, organism-based
- Design: dose 10 mg/kg, route oral
- particulars: in vivo, read-out: Drug uptake
Attribute: concentration
Hi! Could you send only the number? It should be in nM, unit omitted.

Worked examples, 3 molecules total:
smi	value
COc1c(C(=O)N[C@H]2CCCC[C@@H]2O)cc(Cc2ccc(-c3cccnc3)nc2)c2ccccc12	11
COc1c(C(=O)N[C@H]2CCCC[C@@H]2O)cc(Cc2ccc(C)nc2)c2ccccc12	91
COc1c(C(=O)N[C@H]2CCCC[C@@H]2O)cc(Cc2ccc(-n3cccn3)nc2)c2ccccc12	8.7

Here's the next entry for you.
Report concentration for COc1c(C(=O)N[C@H]2CCCC[C@@H]2O)cc(Cc2ccc(Cl)nc2)c2ccccc12 please.
5

Data credit: ChEMBL document CHEMBL3124934
